Molecular target: human GLP-1 receptor (human, UniProt P43220 24-463)
Assay: cell-based or functional assay
No end group written: not given here.
Consider the cut-off 200 pM. If the recorded EC50 human is strictly smaller, the label is fulfilled; if not, the label is not fulfilled.

Look over these answered cases.
>  <BINDER>
HGEGTFTSDVSSYLEGC(PEG 20 kDa)AAKEFIAWLVKGRGSSGAPPPS [cgGLP-12 (SEQ ID NO: 7 + 20k PEG monomer)]

>  <DISCRETE_LABEL>
not fulfilled

$$$$
>  <BINDER>
HGEGTFTSDVSSYLEGCAAKEFIAWLVKGRGSSGAPPPS (Unconjugated peptide) [HGEGTFTSDVSSYLEGCAAKEFIAWLVKGRGSSGAPPPS (SEQ ID NO: 7)]

>  <DISCRETE_LABEL>
fulfilled

$$$$
>  <BINDER>
HGEGTFTSDVSSYLEGCAAKEFIAWLKNGGPSSGAPPPS (Unconjugated peptide) [HGEGTFTSDVSSYLEGCAAKEFIAWLKNGGPSSGAPPPS (SEQ ID NO: 8)]

>  <DISCRETE_LABEL>
fulfilled

$$$$
>  <BINDER>
HGEGTFTSDVSSYLEGCAAKEFIAWLVKGRGSSGAPPPS (not fully specified (residue 17); also: dimer: two peptides on one forked PEG-(maleimide)2) [cgGLP-14 (SEQ ID NO: 7 + 20k PEG dimer)]

>  <DISCRETE_LABEL>
not fulfilled

$$$$
>  <BINDER>
HGEGTFTSDVSSYLEGCAAKEFIAWLVKGRG (Unconjugated peptide) [HGEGTFTSDVSSYLEGCAAKEFIAWLVKGRG (SEQ ID NO: 6)]

>  <DISCRETE_LABEL>
not fulfilled

$$$$

From here, focus on the item given below.
stdin: Dear reviewer, please state whether HGEGTFTSDVSSYLEGCAAKEFIAWLKNGGPSSGAPPPS (not fully specified (residue 17); also: dimer: two peptides on one forked PEG-(maleimide)2) [cgGLP-15 (SEQ ID NO: 8 + 20k PEG dimer)] has EC50 human strictly beneath 200 pM.
stdout: not fulfilled
